Origin of values: patent US9056111B1

- System: ABCB1 over-expressing Jurkat-DNR cells
- procedure_summary: Chemoreversal assay: potentiation of daunorubicin (DNR) killing
- Assay type: cell-based
- conditions: constant 100 nM DNR, varied inhibitor dose, read-out: CR50 ABCB1
result_type: pEC50
Please note pEC50 is a logarithmic value: minus log10 of concentration in mol/L. Answer with that number alone.

Record summary for O=C(c1ccoc1)N1CCN(c2cc(-c3ccoc3)nc3cc(-c4ccccc4)nn23)CC1 [Compound 61] : reported pEC50 = 6.38

pEC50 recorded for this molecule, O=C(NCCCN1CCOCC1)c1cnn2c(-c3ccccc3)cc(-c3ccccc3)nc12 [Compound 6, reference compound] , is 6.66

GET /value?item= COc1cccc(-c2cc3nc(-c4ccco4)cc(N4CCN(C(=O)c5ccoc5)CC4)n3n2)c1 [Compound 56] &field=pEC50 returns 6.33

COc1cccc(C(=O)N2CCN(c3cc(-c4ccccc4)nc4cc(-c5cccc(Cl)c5)nn34)CC2)c1 [Compound 15] yielded pEC50 of 6.46

Record O=C(Cc1ccccc1)N1CCN(c2cc(-c3ccccc3)nc3cc(-c4cccc(Cl)c4)nn23)CC1 [Compound 24] , field pEC50: 6.29

So for O=C(c1ccco1)N1CCN(c2cc(-c3ccccc3)nc3cc(-c4cccc(Cl)c4)nn23)CC1 [Compound 8] , the logged pEC50 turned out to be 6.60

Summary for this molecule, O=C(c1ccoc1)N1CCN(c2cc(-c3cccnc3)nc3cc(-c4cccc(Cl)c4)nn23)CC1 [Compound 30] : pEC50 is 6.70

For this molecule ( O=C(c1ccoc1)N1CCN(c2cc(-c3ccco3)nc3cc(-c4ccco4)nn23)CC1 [Compound 52] ), measured pEC50 is 6.72

response.value for O=C(c1ccoc1)N1CCN(c2cc(-c3ccncc3)nc3cc(-c4cccc(Cl)c4)nn23)CC1 [Compound 31] (field: pEC50) = 6.22

###

- measured_target: UniProt P08183
- Sequence (P08183 whole entry): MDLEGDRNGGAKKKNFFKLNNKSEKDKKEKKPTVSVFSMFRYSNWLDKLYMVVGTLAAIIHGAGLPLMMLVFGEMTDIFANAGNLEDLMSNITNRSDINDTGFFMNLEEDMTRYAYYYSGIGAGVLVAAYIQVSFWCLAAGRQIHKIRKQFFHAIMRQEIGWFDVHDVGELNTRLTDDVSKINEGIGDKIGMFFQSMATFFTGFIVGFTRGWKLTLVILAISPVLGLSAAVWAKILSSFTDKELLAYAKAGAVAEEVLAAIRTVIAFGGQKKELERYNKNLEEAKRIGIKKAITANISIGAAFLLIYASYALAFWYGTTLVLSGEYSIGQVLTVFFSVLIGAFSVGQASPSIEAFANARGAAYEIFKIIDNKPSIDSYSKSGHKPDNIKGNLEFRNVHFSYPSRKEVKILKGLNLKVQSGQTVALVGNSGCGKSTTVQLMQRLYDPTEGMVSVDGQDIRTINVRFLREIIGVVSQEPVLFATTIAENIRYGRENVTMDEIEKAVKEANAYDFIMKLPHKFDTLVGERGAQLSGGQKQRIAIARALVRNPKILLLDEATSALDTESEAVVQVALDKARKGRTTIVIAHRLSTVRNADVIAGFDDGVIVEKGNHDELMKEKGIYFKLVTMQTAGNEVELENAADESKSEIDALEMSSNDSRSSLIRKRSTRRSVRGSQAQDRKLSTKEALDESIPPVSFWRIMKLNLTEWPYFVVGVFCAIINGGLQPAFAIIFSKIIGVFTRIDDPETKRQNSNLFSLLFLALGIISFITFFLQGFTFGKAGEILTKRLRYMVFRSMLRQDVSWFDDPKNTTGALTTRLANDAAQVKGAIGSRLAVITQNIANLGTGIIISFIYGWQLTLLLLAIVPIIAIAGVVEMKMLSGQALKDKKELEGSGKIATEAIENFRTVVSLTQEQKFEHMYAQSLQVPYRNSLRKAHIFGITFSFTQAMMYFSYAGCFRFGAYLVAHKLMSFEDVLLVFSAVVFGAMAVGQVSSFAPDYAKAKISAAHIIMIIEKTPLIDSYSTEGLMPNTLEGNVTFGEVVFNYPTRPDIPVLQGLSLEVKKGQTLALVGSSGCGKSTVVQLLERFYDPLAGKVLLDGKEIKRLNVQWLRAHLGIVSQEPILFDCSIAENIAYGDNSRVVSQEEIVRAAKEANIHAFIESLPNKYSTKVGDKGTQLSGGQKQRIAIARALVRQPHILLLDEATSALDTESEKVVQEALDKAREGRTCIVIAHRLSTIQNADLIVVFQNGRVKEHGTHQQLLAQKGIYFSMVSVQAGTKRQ
- procedure_summary: JC-1 efflux inhibition dose response, flow cytometry, Jurkat-DNR cells
- conditions: IC50 ABCB1 (efflux inhibition of JC-1 substrate), Jurkat-DNR cells over-expressing ABCB1; averages of two to four replicates
result_type: pIC50
pIC50 field: float, defined as -log10 of concentration (mol/L).

So, O=C(c1ccoc1)N1CCN(c2cc(-c3cccnc3)nc3cc(-c4cccc(Cl)c4)nn23)CC1 ? Its pIC50 was 6.11

Measured pIC50, Cc1cc(N2CCN(C(=O)c3ccco3)CC2)n2nc(-c3cccc(Cl)c3)cc2n1 : 5.23

The molecule identified as O=C(c1ccc(Cl)cc1)N1CCN(c2cc(-c3ccccc3)nc3cc(-c4cccc(Cl)c4)nn23)CC1 registered its pIC50 at 5.63

Looking up Cc1cc(N2CCN(C(=O)c3ccoc3)CC2)n2nc(-c3ccccc3)cc2n1 , I see its pIC50 listed as 4.80

response.value for COc1ccc(-c2cc3nc(-c4ccccc4)cc(N4CCN(C(=O)c5ccoc5)CC4)n3n2)cc1 (field: pIC50) = 5.84

In plain terms, CC1CN(C(=O)c2ccoc2)CCN1c1cc(-c2ccco2)nc2cc(-c3ccccc3)nn12 (stereo not shown) has a documented pIC50 of 5.49

So for COc1ccccc1C(=O)N1CCN(c2cc(-c3ccccc3)nc3cc(-c4cccc(Cl)c4)nn23)CC1 , the logged pIC50 turned out to be 5.33

pIC50 recorded for this molecule, COc1cccc(-c2cc(N3CCN(C(=O)c4ccoc4)CC3)n3nc(-c4cccc(Cl)c4)cc3n2)c1 , is 5.66

Reported pIC50 of CN(CCN(C)c1cc(-c2ccco2)nc2cc(-c3ccccc3)nn12)C(=O)c1ccoc1 : 4.76

###

- measured_target: ABCB1 / ABCG2 (Homo sapiens, UniProt Q9UNQ0)
- Sequence (Q9UNQ0 whole entry): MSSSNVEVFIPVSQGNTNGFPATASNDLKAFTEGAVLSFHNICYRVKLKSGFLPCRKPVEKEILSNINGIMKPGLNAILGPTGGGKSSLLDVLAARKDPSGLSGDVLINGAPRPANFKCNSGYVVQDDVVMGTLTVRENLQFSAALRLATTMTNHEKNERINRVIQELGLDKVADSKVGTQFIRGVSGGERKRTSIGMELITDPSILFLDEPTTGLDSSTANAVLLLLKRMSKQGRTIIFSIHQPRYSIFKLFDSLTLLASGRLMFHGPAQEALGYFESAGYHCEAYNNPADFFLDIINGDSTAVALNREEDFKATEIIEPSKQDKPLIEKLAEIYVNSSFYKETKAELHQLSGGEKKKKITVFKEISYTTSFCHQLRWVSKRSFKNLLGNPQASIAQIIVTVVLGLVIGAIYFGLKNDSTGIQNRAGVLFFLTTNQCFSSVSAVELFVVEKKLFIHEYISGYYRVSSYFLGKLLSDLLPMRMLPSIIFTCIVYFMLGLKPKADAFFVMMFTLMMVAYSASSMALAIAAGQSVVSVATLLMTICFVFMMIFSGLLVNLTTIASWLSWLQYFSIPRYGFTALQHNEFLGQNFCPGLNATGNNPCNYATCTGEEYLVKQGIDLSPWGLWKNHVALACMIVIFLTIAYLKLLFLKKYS
- procedure_summary: JC-1 efflux inhibition dose response, flow cytometry, Ig-MXP3 cells
- conditions: human, probe JC-1 (1 µM), ~Fold G2 Selective (B1/G2), quotient of average ABCB1 IC50 and average ABCG2 IC50, efflux assay
result_type: selectivity ratio at 30 min
Write the value as a bare number.

For Cc1cc(N2CCN(C(=O)c3ccco3)CC2)n2nc(-c3cccc(Cl)c3)cc2n1 the molecule record lists selectivity ratio at 30 min as 2.1

Recorded result, COc1cccc(-c2cc3nc(-c4ccccc4)cc(N4CCN(C(=O)c5ccoc5)CC4)n3n2)c1 , selectivity ratio at 30 min: 2

# selectivity ratio at 30 min (molecule: O=C(c1ccccc1)N1CCN(c2cc(-c3ccccc3)nc3cc(-c4ccc(F)cc4)nn23)CC1 ) is 2

In plain terms, O=C(c1ccoc1)N1CCN(c2cc(-c3ccoc3)nc3cc(-c4ccccc4)nn23)CC1 has a documented selectivity ratio at 30 min of 1.1

Entry under test: O=C(c1ccoc1)N1CCN(c2cc(-c3cccs3)nc3cc(-c4ccccc4)nn23)CC1 . Its selectivity ratio at 30 min was 2.1

// COc1cccc(-c2cc3nc(-c4ccco4)cc(N4CCN(C(C)=O)CC4)n3n2)c1 : selectivity ratio at 30 min value = 0.9

Query CC(=O)N1CCN(c2cc(-c3ccccc3)nc3cc(-c4cccc(Cl)c4)nn23)CC1 yields selectivity ratio at 30 min of 0.9

The measured selectivity ratio at 30 min associated with CN(CCCN(C)c1cc(-c2ccco2)nc2cc(-c3ccccc3)nn12)C(=O)c1ccoc1 reads 2.4

selectivity ratio at 30 min in this record for O=C(c1ccoc1)N1CCN(c2cc(-c3cccc(F)c3)nc3cc(-c4ccccc4)nn23)CC1 : 4.2

Short answer for O=C(c1ccoc1)N1CCN(c2cc(-c3ccccc3)nc3cc(-c4cccc(Cl)c4)nn23)CC1 : selectivity ratio at 30 min was 7

Data point: O=C(c1ccccc1)N1CCN(c2cc(-c3ccco3)nc3cc(-c4ccccc4)nn23)CC1 ; selectivity ratio at 30 min = 3.4

Value of measured selectivity ratio at 30 min for the entry Cc1cccc(-c2cc3nc(-c4ccccc4)cc(N4CCN(C(=O)c5ccco5)CC4)n3n2)c1 : 1.6

# molecule O=C(c1ccoc1)N1CCN(c2cc(-c3ccco3)nc3cc(-c4ccco4)nn23)CC1 ; its selectivity ratio at 30 min = 0.7

Query O=C(c1ccccc1)N1CCN(c2cc(-c3ccccc3)nc3cc(-c4cccc(Cl)c4)nn23)CC1 yields selectivity ratio at 30 min of 2.4

Measured selectivity ratio at 30 min of CNCCCN(C)c1cc(-c2ccco2)nc2cc(-c3ccccc3)nn12 : 0.5

Briefly, selectivity ratio at 30 min measured for O=C(c1ccoc1)N1CCN(c2cc(-c3ccc(F)cc3)nc3cc(-c4cccc(Cl)c4)nn23)CC1 : 2.3

Recorded selectivity ratio at 30 min (molecule O=C(c1ccoc1)N1CCN(c2cc(-c3ccccc3)nc3cc(-c4ccccc4)nn23)CC1 ): 3

// COc1ccccc1C(=O)N1CCN(c2cc(-c3ccccc3)nc3cc(-c4cccc(Cl)c4)nn23)CC1 : selectivity ratio at 30 min value = 1

Entry O=C(c1ccoc1)N1CCN(c2cc(-c3ccco3)nc3cc(-c4ccc(Cl)cc4)nn23)CC1 , selectivity ratio at 30 min reported as 22

Recorded result, COc1ccccc1-c1cc2nc(-c3ccccc3)cc(N3CCN(C(=O)c4ccoc4)CC3)n2n1 , selectivity ratio at 30 min: 4.8

The recorded selectivity ratio at 30 min for COc1ccccc1-c1cc2nc(-c3ccco3)cc(N3CCN(C(=O)c4ccoc4)CC3)n2n1 is 2

Quick note, selectivity ratio at 30 min for COc1ccc(-c2cc3nc(-c4ccco4)cc(N4CCN(C(=O)c5ccoc5)CC4)n3n2)cc1 landed at 3.9

Input Cc1nc2cc(-c3cccc(Cl)c3)nn2c(N2CCN(C(=O)c3ccco3)CC2)c1C . Output selectivity ratio at 30 min: 3.2

###

Provide the recorded selectivity ratio at 30 min for the entries that follow.
- measured_target: ABCB1 / ABCG2 (Homo sapiens)
- procedure_summary: JC-1 efflux inhibition dose response, flow cytometry, Ig-MXP3 cells
- conditions: human, probe JC-1 (1 µM), ~Fold G2 Selective (B1/G2), quotient of average ABCB1 IC50 and average ABCG2 IC50, efflux assay
Give a plain numeric answer without units written out.

Summary line: O=C(c1ccsc1)N1CCN(c2cc(-c3ccccc3)nc3cc(-c4cccc(Cl)c4)nn23)CC1 [Compound 12] , ABCB1 / ABCG2 (Homo sapiens), reported selectivity ratio at 30 min = 2.8

// selectivity ratio at 30 min (ABCB1 / ABCG2 (Homo sapiens)) for CN(C)c1cc(-c2ccco2)nc2cc(-c3ccccc3)nn12 [Compound 82] = 3.6

Observed selectivity ratio at 30 min on ABCB1 / ABCG2 (Homo sapiens), entry CC(=O)N1CCN(c2cc(-c3ccco3)nc3cc(-c4ccccc4)nn23)CC1 [Compound 74] , equals 7

Reported ABCB1 / ABCG2 (Homo sapiens) selectivity ratio at 30 min for item c1ccc(-c2cc3nc(-c4ccco4)cc(N4CCNCC4)n3n2)cc1 [Compound 77] was 4.1

Entry O=C(C1CCCCC1)N1CCN(c2cc(-c3ccccc3)nc3cc(-c4cccc(Cl)c4)nn23)CC1 [Compound 22] ; assay system ABCB1 / ABCG2 (Homo sapiens); selectivity ratio at 30 min recorded at 1.2

GET /values?item= COc1ccc(-c2cc(N3CCN(C(=O)c4ccoc4)CC3)n3nc(-c4cccc(Cl)c4)cc3n2)cc1 [Compound 29] &system= ABCB1 / ABCG2 (Homo sapiens) returns selectivity ratio at 30 min: 2.4

Kindly note: ABCB1 / ABCG2 (Homo sapiens), Cc1ccc(-c2cc(N3CCN(C(=O)c4ccoc4)CC3)n3nc(-c4ccccc4)cc3n2)o1 [Compound 66] , selectivity ratio at 30 min value reported: 0.8

Entry Cc1nc2cc(-c3ccccc3)nn2c(N2CCN(C(=O)c3ccoc3)CC2)c1C [Compound 89] ; assay system ABCB1 / ABCG2 (Homo sapiens); selectivity ratio at 30 min recorded at 0.7
